Data origin: patent US20200407452A1

# TEST_SYSTEM: native human MET on living cells (human, UniProt P08581 25-1390)
# Sequence (P08581 25-1390): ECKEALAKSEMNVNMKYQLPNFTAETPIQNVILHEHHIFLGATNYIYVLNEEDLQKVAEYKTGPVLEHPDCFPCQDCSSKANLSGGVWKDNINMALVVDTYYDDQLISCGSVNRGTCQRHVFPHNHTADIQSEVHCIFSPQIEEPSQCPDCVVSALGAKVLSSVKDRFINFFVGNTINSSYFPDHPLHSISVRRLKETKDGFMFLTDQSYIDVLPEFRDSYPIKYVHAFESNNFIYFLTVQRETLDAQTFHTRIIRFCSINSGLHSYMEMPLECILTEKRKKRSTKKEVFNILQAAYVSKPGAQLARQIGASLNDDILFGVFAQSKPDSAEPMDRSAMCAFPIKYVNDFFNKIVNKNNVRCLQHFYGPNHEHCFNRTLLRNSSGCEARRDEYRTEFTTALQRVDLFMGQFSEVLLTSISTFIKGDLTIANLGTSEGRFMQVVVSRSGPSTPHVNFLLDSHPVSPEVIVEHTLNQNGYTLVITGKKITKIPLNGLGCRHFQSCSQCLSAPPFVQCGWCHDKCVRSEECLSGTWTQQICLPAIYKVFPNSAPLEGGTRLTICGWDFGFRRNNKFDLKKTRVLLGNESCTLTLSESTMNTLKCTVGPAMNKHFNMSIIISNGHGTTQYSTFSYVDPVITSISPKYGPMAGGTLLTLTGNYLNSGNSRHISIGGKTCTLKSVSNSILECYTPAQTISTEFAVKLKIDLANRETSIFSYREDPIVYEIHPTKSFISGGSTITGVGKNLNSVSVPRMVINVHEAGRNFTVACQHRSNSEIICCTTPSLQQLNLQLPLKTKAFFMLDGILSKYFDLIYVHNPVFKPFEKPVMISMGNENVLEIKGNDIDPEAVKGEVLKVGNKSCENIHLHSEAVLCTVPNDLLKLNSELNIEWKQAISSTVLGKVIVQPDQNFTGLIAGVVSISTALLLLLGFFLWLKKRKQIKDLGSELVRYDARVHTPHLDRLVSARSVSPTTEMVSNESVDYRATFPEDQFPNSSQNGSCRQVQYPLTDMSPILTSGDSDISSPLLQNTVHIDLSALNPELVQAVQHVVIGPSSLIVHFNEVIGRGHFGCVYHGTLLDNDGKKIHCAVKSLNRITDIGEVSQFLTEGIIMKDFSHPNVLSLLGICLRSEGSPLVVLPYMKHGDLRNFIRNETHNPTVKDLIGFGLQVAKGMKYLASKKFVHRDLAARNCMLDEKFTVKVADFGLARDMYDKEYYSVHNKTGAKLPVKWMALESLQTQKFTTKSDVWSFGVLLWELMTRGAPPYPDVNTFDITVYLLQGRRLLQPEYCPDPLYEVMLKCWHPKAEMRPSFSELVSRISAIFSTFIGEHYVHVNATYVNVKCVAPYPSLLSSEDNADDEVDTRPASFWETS
# METHOD_NOTES: cell-based or functional assay
REPORTED_ENDPOINT: protection from staurosporine-induced apoptosis EMAX, MCF10A cells (%)
Provide only the numeric value, understood in %.

Challenge: Could you share which protection from staurosporine-induced apoptosis EMAX, MCF10A cells value was measured for 72F8 chimeric llama-human IgG1 mAb (antibody, V domains shown, human IgG1 CH1-CH2-CH3 and human CL lambda) VH: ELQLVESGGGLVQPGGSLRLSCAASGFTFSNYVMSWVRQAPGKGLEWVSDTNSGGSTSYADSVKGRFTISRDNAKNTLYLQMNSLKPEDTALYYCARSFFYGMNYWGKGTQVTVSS VL: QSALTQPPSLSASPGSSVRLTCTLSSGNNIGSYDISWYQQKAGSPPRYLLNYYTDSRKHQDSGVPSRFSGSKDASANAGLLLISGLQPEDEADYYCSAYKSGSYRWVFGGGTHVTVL ?
Response given: 35.8

Challenge: Again, but for 74C8 chimeric llama-human IgG1 mAb (antibody, V domains shown, human IgG1 CH1-CH2-CH3 and human CL lambda) VH: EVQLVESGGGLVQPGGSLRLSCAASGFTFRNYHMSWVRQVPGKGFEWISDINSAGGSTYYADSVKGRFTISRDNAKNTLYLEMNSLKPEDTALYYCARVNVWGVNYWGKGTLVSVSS VL: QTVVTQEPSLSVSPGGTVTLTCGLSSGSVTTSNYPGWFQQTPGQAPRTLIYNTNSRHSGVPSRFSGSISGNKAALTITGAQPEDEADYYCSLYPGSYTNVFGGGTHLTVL
Response given: 41.7

Challenge: // next record 71D6 chimeric llama-human IgG1 mAb (antibody, V domains shown, human IgG1 CH1-CH2-CH3 and human CL lambda; also called 71D6 Human IgG1/lambda) VH: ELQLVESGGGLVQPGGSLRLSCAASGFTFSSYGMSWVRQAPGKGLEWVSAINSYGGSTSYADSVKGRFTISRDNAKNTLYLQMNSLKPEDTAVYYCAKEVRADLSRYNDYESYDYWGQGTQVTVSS VL: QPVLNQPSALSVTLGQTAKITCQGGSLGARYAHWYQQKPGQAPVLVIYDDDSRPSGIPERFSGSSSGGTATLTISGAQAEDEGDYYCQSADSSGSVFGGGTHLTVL
Response given: 66.8
